experiment-summary: In-vivo pharmacokinetic evaluation, single dose
Design: species or system New Zealand White rabbits
condition-context: New Zealand White, whole blood, 1 mg; heading: Average Tac conc.; rabbit blood, 0.25 (15 mins) after single 1 mg dose (oral or buccal patch), LC-MS/MS
measurement-type: concentration at 0.25 h (ng/mL)
Provide the reading as a plain figure in ng/mL.

Complete the entry with concentration at 0.25 h for C=CC[C@@H]1/C=C(\C)C[C@H](C)C[C@H](OC)[C@H]2O[C@@](O)(C(=O)C(=O)N3CCCC[C@H]3C(=O)O[C@H](/C(C)=C/[C@@H]3CC[C@@H](O)[C@H](OC)C3)[C@H](C)[C@@H](O)CC1=O)[C@H](C)C[C@@H]2OC (relative stereo) [Tacrolimus, monohydrate]
3.6

----------
experiment-summary: In-vivo pharmacokinetic evaluation, single dose
Design: species or system New Zealand White rabbits
condition-context: New Zealand White, whole blood, 1 mg; heading: Average Tac conc.; rabbit blood, 1.5 (90 mins) after single 1 mg dose (oral or buccal patch)
measurement-type: concentration at 1.5 h (ng/mL)
Reply numerically in ng/mL, unit not repeated.

For the compound C=CC[C@@H]1/C=C(\C)C[C@H](C)C[C@H](OC)[C@H]2O[C@@](O)(C(=O)C(=O)N3CCCC[C@H]3C(=O)O[C@H](/C(C)=C/[C@@H]3CC[C@@H](O)[C@H](OC)C3)[C@H](C)[C@@H](O)CC1=O)[C@H](C)C[C@@H]2OC (relative stereo) [Tacrolimus, monohydrate] , report concentration at 1.5 h.
46.9

----------
experiment-summary: In-vivo pharmacokinetic evaluation, single dose
Parameters: species or system New Zealand White rabbits
condition-context: New Zealand White, whole blood, 1 mg; heading: Average Tac conc.; rabbit blood, 1.0 (60 mins) after single 1 mg dose (oral or buccal patch)
measurement-type: concentration at 1 h (ng/mL)
Field: numeric (ng/mL). Do not append units.

For the molecule C=CC[C@@H]1/C=C(\C)C[C@H](C)C[C@H](OC)[C@H]2O[C@@](O)(C(=O)C(=O)N3CCCC[C@H]3C(=O)O[C@H](/C(C)=C/[C@@H]3CC[C@@H](O)[C@H](OC)C3)[C@H](C)[C@@H](O)CC1=O)[C@H](C)C[C@@H]2OC (relative stereo) [Tacrolimus, monohydrate] , give its measured concentration at 1 h value.
17.2

----------
experiment-summary: In-vivo pharmacokinetic evaluation, single dose
Parameters: species or system New Zealand White rabbits
condition-context: New Zealand White, whole blood; rabbit, single 1 mg dose (oral or buccal patch); read-out: Elimination t1/2 (converted)
Experimental: The study was performed in New Zealand White rabbits as per the CPCSEA guidance. Overnight fasted animals were anaesthetised with Ketamine (30-40 mg/kg) and Xylazine (10 mg/kg) and 1 mg BAPTac patch was administered on the buccal surface of the oral cavity. The control group was administered 1 mg tacrolimus in PBS and 30% Ethanol. […] Blood samples were collected in EDTA tubes, aliquoted and stored in amber-coloured tubes at −80° C. until quantification by LC-MS/MS.
measurement-type: half-life (h)
Quick note: give the figure in h, leave out the unit.

Specify half-life for C=CC[C@@H]1/C=C(\C)C[C@H](C)C[C@H](OC)[C@H]2O[C@@](O)(C(=O)C(=O)N3CCCC[C@H]3C(=O)O[C@H](/C(C)=C/[C@@H]3CC[C@@H](O)[C@H](OC)C3)[C@H](C)[C@@H](O)CC1=O)[C@H](C)C[C@@H]2OC (relative stereo) [Tacrolimus, monohydrate] and stop.
2.73

Source listed as patent US20250319019A1.
